B1: HDV Ribozyme (parent)
chain: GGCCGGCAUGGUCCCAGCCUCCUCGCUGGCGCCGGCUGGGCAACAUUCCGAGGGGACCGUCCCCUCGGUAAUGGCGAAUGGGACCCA

variants of: B1; assay: self-cleavage, relative activity (ratio to wild type); higher = more cleavage; co-transcriptional
Entries annotated with measured self-cleavage

RESIDUE_CODES	self-cleavage
GGCCGGCAUGGUCCCAGCCUCCUCGCUGGCGACGGCUGGGCAACAUUCCGAGUGGACCGUCCCCUCGGUAAUGGCGAAUGGGACCCA	0.214
GGCCGGCAUGCUCCCAGCCUCCUCUCUGGCGCCGGCUGGGCAACAUUCCGAGGGGACCGUCCCCUCGGUAAUGGCGAAUGGGACCCA	0
GGCCGGCGUGGUCCCAGCCUCCUCGCUGGCGCCGGCUGGGCUACAUUCCGAGGGGACCGUCCCCUCGGUAAUGGCGAAUGGGACCCA	0.317
GGCCGGCCUGGUCCCAGCCUCCUCGCUGGCGCCGGCUGGGCAACAUUCCGCGGGGACCGUCCCCUCGGUAAUGGCGAAUGGGACCCA	0.802
GGCCGGCAUGGUCCCAGCCUCCUCGCUGGCGCCGGCUGGGCAACAUUCCGACGGGACCGUCCCCUCGGUAAUGGCGGAUGGGACCCA	0.643
GGCCGGCAUGGUCCCAGCCUCCUCGCUGGCGCCGGCUGGGCAACAUUCCGAGGGGAGCGUCCCCUCGGUAAUGGCGAAUGGGUCCCA	0.587
GGCCGGCAUGGUCCCAGCCUCCUCGCUGGCGCCGGCUAGGCAACAUUCCGAGGGGACCGUCCCCUCGGUAAUGGCGACUGGGACCCA	0.138
GGCCGGCAUGGUCCCAGCCUCCUCGCUGGCGCCGGCUGGGCAACAUUCCGAGGGGACCGUCCCCUCGGUACUGGAGAAUGGGACCCA	0.0852
GGCCUGCAUGGUCCCAGCCUCCUCGCUGGCGCUGGCUGGGCAACAUUCCGAGGGGACCGUCCCCUCGGUAAUGGCGAAUGGGACCCA	0.615
GGCCGGCAUGGUCCCAGCCUCCUCGCUGGCGCCGGCUGGGCAACAUUCCGAGGGUACCGUCCCCGCGGUAAUGGCGAAUGGGACCCA	0.847
GGCCGGCAAGGUCCCAGCCUCCUCGCUGGAGCCGGCUGGGCAACAUUCCGAGGGGACCGUCCCCUCGGUAAUGGCGAAUGGGACCCA	0.732
GGCCGGGAUGGUCCCUGCCUCCUCGCUGGCGCCGGCUGGGCAACAUUCCGAGGGGACCGUCCCCUCGGUAAUGGCGAAUGGGACCCA	0.0692
GGCCAGCAUGGUCCCAGCCUCCUCGCUGGCGCCGGCUGGGCAACAUUCCGAGGGGACCGUCCCUUCGGUAAUGGCGAAUGGGACCCA	0.359
GGCCGGCGUGGUCCCAGCCUCCUCGCUGGCGCCGGCUGGGCAACAUUCCGAGGGGACCGUCCCCUCAGUAAUGGCGAAUGGGACCCA	0.755
GGCCGGCAUGGUCCCAGCCUCCUCGCAGGCGCCGGCUGGGCAACAUUCCGAGGGGACCGUCCCCUCGGCAAUGGCGAAUGGGACCCA	1.11
GGCCGGCAUGGUCCCAGCCUCCUCGCGGGCGCCGGCUGGGCAACAUUCCGAGGGGACCGUCCCCUCGGUAAUGCCGAAUGGGACCCA	0.302
GGCCGGCAUGGUCCCAACCUCCUCGCCGGCGCCGGCUGGGCAACAUUCCGAGGGGACCGUCCCCUCGGUAAUGGCGAAUGGGACCCA	0.309
GGCCGGCAUGGUCCCAGCCUCCUCGCUGGCGCCGGCUGGGCAACAUUCCGAGGGGACCGACCCCUCGGUAAUGGCGAAUGGGACCGA	0.851
GGCCGGCAUUGUCCCAGGCUCCUCGCUGGCGCCGGCUGGGCAACAUUCCGAGGGGACCGUCCCCUCGGUAAUGGCGAAUGGGACCCA	0.111
GGCCGGCAUGGUCCCAGCCUCCUCGCUGGCGCCCGCUGGGCAACAUUCCGAGGGGACCGUCACCUCGGUAAUGGCGAAUGGGACCCA	0.162
GGCCGGCAUGGUCCCAGCCUCCUCGCUGGCGCCGGCUGGGCAACAUUCCGAGGGAAGCGUCCCCUCGGUAAUGGCGAAUGGGACCCA	1.07
GGCCGGCAUGGUCCCAGCCUCCUCGCUGGCGCCGGCUGGGCAACAUUCCGAGGGGAGCGUCCCCUCGGUAAUGGUGAAUGGGACCCA	0.271
GGCCGGCAUGGUCCCAGCCUCCUCGCUGGCGCCGGCUGGGCAACACUCCGAGGGGACCGUCCCCUCGGUAAUGGCGAAUGGGACCCA	0.815
GGCCGGCAUGGUCCCAGCCUCCUCGCUGGCGCCGGCUGGGCAACAGUCCGAGGGGACCGUCCCCUCGGUAAUGGCGAAUGGGACUCA	0.831
GGCCGGCAUGGUCCCAGCCUCCUCGCUGGCGCCGGCUGGGCAACAUUCCGAGGGGACCGGCCCCUCGGUAAUGGCGAAUGGGAACCA	0.752
GGCCGGCAUGGUCCCAGACUCCUCGCAGGCGCCGGCUGGGCAACAUUCCGAGGGGACCGUCCCCUCGGUAAUGGCGAAUGGGACCCA	0.131
GGCCGGCAUGGUCCCAGCCUCCGCGCUGGCGCCGGCUGGGCAACAUUCCGAGGGGAACGUCCCCUCGGUAAUGGCGAAUGGGACCCA	0.656
GGCCGGCAUGGUCCCAGCCACCUCGCUGGCGCCGGCUGGGCAACAUUCCGAGGGGACCGUCCCCUCGGUAAUGGCGAAUGGGACCCG	0.0831
GGCCGGCAUGGUCCCAGCCUCCUCGCUGGCGCCGGCUGGGCAACAUUCCGAGGGGACCGUACCCUCGGUAAUGGCGAAGGGGACCCA	1.14
GGCCGGCAUGGUCCCAGCCUCCUCGCUGGCGCCGGCUGGGCAACAUACCGAGGGGACCGUCCCCUCGGUAAUGGCGACUGGGACCCA	0.147
GGCCGGCAUGGUCCCAGCCUCCUCGCUGGUGCCGGCUGGGCAACAUUCCGAGGGGACCGUCCCCUCGGUAAUGCCGAAUGGGACCCA	0.113
GGCCGGCAUGGUCCCAACCUCCUCGCUGGCGCCGGCUGGGCAACAUUCCGAGGGGACCGUCCCCUCGGUAAUCGCGAAUGGGACCCA	0.0615
GGCCGGCAUGGUCCCAACCUCCUCGCUGGCGCCGGCUGGGCAACAUUCCGAGGGGACCGUCCCCUCGGUAAUGGCGAAUGCGACCCA	0.204
GGCCGGCAUGGGCCCAGCCUCCUCGCUGGCGCCGGCUGGGCAACAUUCCGAGGGGACCGUCCCCUCGGUAAUGGCAAAUGGGACCCA	0.917
GGCCGGCAUGGUCCCAGCCUCCUCGCUGGCGCCGGCUGGGCAACAUUCCGAGGGGACCGUCCCUUCGGUAAUUGCGAAUGGGACCCA	0.345
GGCCGGCAUGGUCCGAGCCUCCUCGCUGGCGCCGGCUGGGCACCAUUCCGAGGGGACCGUCCCCUCGGUAAUGGCGAAUGGGACCCA	0.0875
GGCCGGCAUGGUCCCAGCCUCCUCGCUGCCGCCGGCUGGGCAACAUUCCGAGGGGACCGUCCCCUCGGUAAUAGCGAAUGGGACCCA	0.0707
GGCCCGCAUGGUCCCAGCCUCCUCGCUGGCGCCGGCUGGGCAACAUUCCGAGGGGACCGUCCCCUCGGUAAUGGCUAAUGGGACCCA	0.378
GGCCGGCAUGGUCCCAGCCUCCUCGCUGGCGCUGGCUGGGCAACAUUCCGAGGGGACCGUCCCCUCGGUAAUGGAGAAUGGGACCCA	0.0923
GGCCGGCAUGGUCCCAGCCUCUUCGGUGGCGCCGGCUGGGCAACAUUCCGAGGGGACCGUCCCCUCGGUAAUGGCGAAUGGGACCCA	0.492
GGCCGACAUGGUCCCAGCCUCCUCGCUGGCGCCGGCUGGGCAACAUUCCGAGGGGACCGUCCCCUCGGUCAUGGCGAAUGGGACCCA	0.527
GGCCGGCAUGGUCCCAGCCUCCUCGCUGGCGCCGGCUGGGCAACAUUCCGAGGUGACCGUCCACUCGGUAAUGGCGAAUGGGACCCA	0.901
GGCCGGCAUGGUCCCAGCCUCCUAGCUGGCGCUGGCUGGGCAACAUUCCGAGGGGACCGUCCCCUCGGUAAUGGCGAAUGGGACCCA	0.363
GGCCGGCAUGGUCCCAGCCUCCUCGCUGGCGCCGGCUGGGCAACAUUCCAAGGGGACUGUCCCCUCGGUAAUGGCGAAUGGGACCCA	0.919
GGCCGGCAUGGUCCCUGCCUCCUCGCUGGCGCCGGCUGGGCAACAUUCCGAGGGGACCGUCCCCUCGGUAAUGGCGAACGGGACCCA	0.705
GGCCGGCAUGGUCCCAGCCUCCUCGCUGGCGCCGGCUGGGGAACAUUCCGAGGGGACCGUCCCCUCGGUACUGGCGAAUGGGACCCA	0.0723
